System: Vaccinia virus
Assay: Concentration required to reduce vaccinia virus-inducted cytopathicity by 50% (E6SM cells)
Format: functional, organism-based, Orthopoxvirus vaccinia
Details: e6sm
PROPERTY LABEL: IC50

[[record]]
smiles_code = "O=S(=O)(O)CCSCCCOC[C@H]1O[C@@H](OCCCSCCS(=O)(=O)O)[C@H](OCCCSCCS(=O)(=O)O)[C@@H](OCCCSCCS(=O)(=O)O)[C@@H]1OCCCSCCS(=O)(=O)O"
data_value = "> 167 µM"


----------
Tested on: CEM-4
Assay: Inhibitory concentration required to inhibit HIV-induced cytopathicity in CEM-4 cells by 50%
Type: functional, cell-based
Details: Homo sapiens
# maps each entry to its IC50
PROPERTY LABEL: IC50

[[record]]
compound = "O=S(=O)(O)CCSCCCOC[C@H]1O[C@@](COCCCSCCS(=O)(=O)O)(O[C@H]2O[C@H](COCCCSCCS(=O)(=O)O)[C@@H](OCCCSCCS(=O)(=O)O)[C@H](OCCCSCCS(=O)(=O)O)[C@H]2OCCCSCCS(=O)(=O)O)[C@@H](OCCCSCCS(=O)(=O)O)[C@@H]1OCCCSCCS(=O)(=O)O"
subject_of_test = "CEM-4"
property_label = "IC50"
data_value = "> 50.6 µM"

[[record]]
compound = "CO[C@H]1O[C@H](COCCCSCC(=O)O)[C@@H](OCCCSCC(=O)O)[C@@H](OCCCSCC(=O)O)[C@H]1OCCCSCC(=O)O"
subject_of_test = "CEM-4"
property_label = "IC50"
data_value = "> 370 µM"

[[record]]
compound = "O=S(=O)(O)CCSCCCOC[C@H]1O[C@@H](OCCCSCCS(=O)(=O)O)[C@H](OCCCSCCS(=O)(=O)O)[C@@H](OCCCSCCS(=O)(=O)O)[C@@H]1OCCCSCCS(=O)(=O)O"
subject_of_test = "CEM-4"
property_label = "IC50"
data_value = "> 83.3 µM"

[[record]]
compound = "O=C(O)CCSCCCOC[C@H]1O[C@@H](OCCCSCCC(=O)O)[C@H](OCCCSCCC(=O)O)[C@@H](OCCCSCCC(=O)O)[C@@H]1OCCCSCCC(=O)O"
subject_of_test = "CEM-4"
property_label = "IC50"
data_value = "> 98 µM"

[[record]]
compound = "O=C(O)CCSCCCOC[C@H]1O[C@@](COCCCSCCC(=O)O)(O[C@H]2O[C@H](COCCCSCCC(=O)O)[C@@H](OCCCSCCC(=O)O)[C@H](OCCCSCCC(=O)O)[C@H]2OCCCSCCC(=O)O)[C@@H](OCCCSCCC(=O)O)[C@@H]1OCCCSCCC(=O)O"
subject_of_test = "CEM-4"
property_label = "IC50"
data_value = "> 59.3 µM"

[[record]]
compound = "O=C(O)CC(SCCCOC[C@H]1O[C@@H](OCCCSC(CC(=O)O)C(=O)O)[C@H](OCCCSC(CC(=O)O)C(=O)O)[C@@H](OCCCSC(CC(=O)O)C(=O)O)[C@@H]1OCCCSC(CC(=O)O)C(=O)O)C(=O)O (some centres undefined)"
subject_of_test = "CEM-4"
property_label = "IC50"
data_value = "> 74 µM"

[[record]]
compound = "O=C(O)CC(SCCCOC[C@H]1O[C@@](COCCCSC(CC(=O)O)C(=O)O)(O[C@H]2O[C@H](COCCCSC(CC(=O)O)C(=O)O)[C@@H](OCCCSC(CC(=O)O)C(=O)O)[C@H](OCCCSC(CC(=O)O)C(=O)O)[C@H]2OCCCSC(CC(=O)O)C(=O)O)[C@@H](OCCCSC(CC(=O)O)C(=O)O)[C@@H]1OCCCSC(CC(=O)O)C(=O)O)C(=O)O (some centres undefined)"
subject_of_test = "CEM-4"
property_label = "IC50"
data_value = "3.02 µM"

[[record]]
compound = "CO[C@H]1O[C@H](COCCCSCCC(=O)O)[C@@H](OCCCSCCC(=O)O)[C@@H](OCCCSCCC(=O)O)[C@H]1OCCCSCCC(=O)O"
subject_of_test = "CEM-4"
property_label = "IC50"
data_value = "> 346 µM"

[[record]]
compound = "CO[C@H]1O[C@H](COCCCSC(CC(=O)O)C(=O)O)[C@@H](OCCCSC(CC(=O)O)C(=O)O)[C@@H](OCCCSC(CC(=O)O)C(=O)O)[C@H]1OCCCSC(CC(=O)O)C(=O)O (some centres undefined)"
subject_of_test = "CEM-4"
property_label = "IC50"
data_value = "69 µM"


----------
Tested on: Vaccinia virus
Test: Concentration required to reduce vaccinia virus-inducted cytopathicity by 50% (E6SM cells)
Format: functional, organism-based, Orthopoxvirus vaccinia
Settings: Orthopoxvirus vaccinia, E6SM
# maps each entry to its IC50
PROPERTY LABEL: IC50

[[record]]
molecule = "O=C(O)CC(SCCCOC[C@H]1O[C@@H](O[C@H]2[C@H](OCCCSC(CC(=O)O)C(=O)O)[C@@H](OCCCSC(CC(=O)O)C(=O)O)[C@@H](OCCCSC(CC(=O)O)C(=O)O)O[C@@H]2COCCCSC(CC(=O)O)C(=O)O)[C@H](OCCCSC(CC(=O)O)C(=O)O)[C@@H](OCCCSC(CC(=O)O)C(=O)O)[C@@H]1OCCCSC(CC(=O)O)C(=O)O)C(=O)O (stereo partly specified)"
data_value = "> 181 µM"

[[record]]
molecule = "O=C(O)CC(SCCCOC[C@H]1O[C@@H](O[C@H]2[C@H](OCCCSC(CC(=O)O)C(=O)O)[C@@H](OCCCSC(CC(=O)O)C(=O)O)C(OCCCSC(CC(=O)O)C(=O)O)O[C@@H]2COCCCSC(CC(=O)O)C(=O)O)[C@H](OCCCSC(CC(=O)O)C(=O)O)[C@@H](OCCCSC(CC(=O)O)C(=O)O)[C@@H]1OCCCSC(CC(=O)O)C(=O)O)C(=O)O (stereo partly specified)"
data_value = "> 181 µM"

[[record]]
molecule = "O=C(O)CC(SCCCOC[C@H]1O[C@@](COCCCSC(CC(=O)O)C(=O)O)(O[C@H]2O[C@H](COCCCSC(CC(=O)O)C(=O)O)[C@@H](OCCCSC(CC(=O)O)C(=O)O)[C@H](OCCCSC(CC(=O)O)C(=O)O)[C@H]2OCCCSC(CC(=O)O)C(=O)O)[C@@H](OCCCSC(CC(=O)O)C(=O)O)[C@@H]1OCCCSC(CC(=O)O)C(=O)O)C(=O)O (stereo partly specified)"
data_value = "> 181 µM"

[[record]]
molecule = "O=C(O)CCSCCCOC[C@H]1O[C@@](COCCCSCCC(=O)O)(O[C@H]2O[C@H](COCCCSCCC(=O)O)[C@@H](OCCCSCCC(=O)O)[C@H](OCCCSCCC(=O)O)[C@H]2OCCCSCCC(=O)O)[C@@H](OCCCSCCC(=O)O)[C@@H]1OCCCSCCC(=O)O"
data_value = "> 237 µM"

[[record]]
molecule = "O=S(=O)(O)CCSCCCOC[C@H]1O[C@@](COCCCSCCS(=O)(=O)O)(O[C@H]2O[C@H](COCCCSCCS(=O)(=O)O)[C@@H](OCCCSCCS(=O)(=O)O)[C@H](OCCCSCCS(=O)(=O)O)[C@H]2OCCCSCCS(=O)(=O)O)[C@@H](OCCCSCCS(=O)(=O)O)[C@@H]1OCCCSCCS(=O)(=O)O"
data_value = "> 101 µM"

[[record]]
molecule = "O=C(O)CC(SCCCOC[C@H]1O[C@@H](OCCCSC(CC(=O)O)C(=O)O)[C@H](OCCCSC(CC(=O)O)C(=O)O)[C@@H](OCCCSC(CC(=O)O)C(=O)O)[C@@H]1OCCCSC(CC(=O)O)C(=O)O)C(=O)O (stereo partly specified)"
data_value = "> 296 µM"


----------
System: Vero
Assay: Concentration required to reduce Coxsackie virus-inducted cytopathicity by 50% (Vero cells)
Type: functional, cell-based
Details: Chlorocebus sabaeus
PROPERTY LABEL: IC50

[[record]]
compound = "O=C(O)CC(SCCCOC[C@H]1O[C@@H](OCCCSC(CC(=O)O)C(=O)O)[C@H](OCCCSC(CC(=O)O)C(=O)O)[C@@H](OCCCSC(CC(=O)O)C(=O)O)[C@@H]1OCCCSC(CC(=O)O)C(=O)O)C(=O)O (stereo not given in full)"
property_label = "IC50"
data_value = "> 148 µM"

[[record]]
compound = "O=S(=O)(O)CCSCCCOC[C@H]1O[C@@](COCCCSCCS(=O)(=O)O)(O[C@H]2O[C@H](COCCCSCCS(=O)(=O)O)[C@@H](OCCCSCCS(=O)(=O)O)[C@H](OCCCSCCS(=O)(=O)O)[C@H]2OCCCSCCS(=O)(=O)O)[C@@H](OCCCSCCS(=O)(=O)O)[C@@H]1OCCCSCCS(=O)(=O)O"
property_label = "IC50"
data_value = "> 101 µM"

[[record]]
compound = "O=C(O)CCSCCCOC[C@H]1O[C@@](COCCCSCCC(=O)O)(O[C@H]2O[C@H](COCCCSCCC(=O)O)[C@@H](OCCCSCCC(=O)O)[C@H](OCCCSCCC(=O)O)[C@H]2OCCCSCCC(=O)O)[C@@H](OCCCSCCC(=O)O)[C@@H]1OCCCSCCC(=O)O"
property_label = "IC50"
data_value = "> 59 µM"

[[record]]
compound = "O=S(=O)(O)CCSCCCOC[C@H]1O[C@@H](OCCCSCCS(=O)(=O)O)[C@H](OCCCSCCS(=O)(=O)O)[C@@H](OCCCSCCS(=O)(=O)O)[C@@H]1OCCCSCCS(=O)(=O)O"
property_label = "IC50"
data_value = "> 167 µM"

[[record]]
compound = "O=C(O)CC(SCCCOC[C@H]1O[C@@](COCCCSC(CC(=O)O)C(=O)O)(O[C@H]2O[C@H](COCCCSC(CC(=O)O)C(=O)O)[C@@H](OCCCSC(CC(=O)O)C(=O)O)[C@H](OCCCSC(CC(=O)O)C(=O)O)[C@H]2OCCCSC(CC(=O)O)C(=O)O)[C@@H](OCCCSC(CC(=O)O)C(=O)O)[C@@H]1OCCCSC(CC(=O)O)C(=O)O)C(=O)O (stereo not given in full)"
property_label = "IC50"
data_value = "> 90 µM"


Taken from ChEMBL document CHEMBL1130336.
